# Tested on: HeLa cells
# Test Summary: Cell cycle assay in HeLa cells
# Type: cell-based, human
# Condition: HeLa cells, 150 nM, 48 hours, relative to untreated control
In the oligonucleotide strings, read from the 5' end, every base follows the letter of its sugar. An asterisk marks phosphorothioate; unmarked linkages are phosphodiester. Other units and linkages are bracketed, terminal groups are in braces. A string of capitals states the bases alone. e = 2'-O-(2-methoxyethyl) (MOE); [5mC] = 5-methylcytosine; d = 2'-deoxy (DNA)
Experimental Readout: % cells in cell cycle phase G2/M (%)
The figure you give is taken to be in %; do not add the unit.

Here's what some known entries look like.
Substance | Tested Target | U | Measurement
25690 (antisense eA*eT*e[5mC]*e[5mC]*e[5mC]*dT*dT*dT*d[5mC]*dT*dT*d[5mC]*d[5mC]*dG*d[5mC]*eA*eT*eG*eT*eG) [compound 25690] | HeLa cells | % | 87
327905 (antisense e[5mC]*eA*eG*eA*e[5mC]*eT*e[5mC]*e[5mC]*eG*eG*eT*eG*eG*eA*eA*eT*eG*eA*eA*eG*eG*eA) [compound 327905] | HeLa cells | % | 90
345395 (AAGGGATTCCTGGGAAAACTGGAC; sugars from the 5' end e5 d10 e9, all phosphorothioate, methylation of C not given here) [compound 345395] | HeLa cells | % | 95

Request: Entry 328707 (eG*e[5mC]*eA*eA*e[5mC]*dA*dG*dG*d[5mC]*d[5mC]*dT*d[5mC]*dA*dA*dT*eA*eT*e[5mC]*eT*eT) [compound 328707] : reported % cells in cell cycle phase G2/M = ?
Result: 122

Request: Would you kindly repeat that for 327896 (antisense eA*e[5mC]*eA*eG*eT*eT*e[5mC]*eT*eT*e[5mC]*eA*eA*e[5mC]*eT*eG*eG*e[5mC]*eA*eG*e[5mC]*eT*eT) [compound 327896] ?
Result: 106

Request: Try the substance 338836 (antisense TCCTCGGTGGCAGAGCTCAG; all 2'-MOE, all phosphorothioate, methylation of C not given here) [compound 338836]
Result: 121

* * *

Quick reference: Follistatin (% UTC) of the listed items.
# Tested on: follistatin
# Test Summary: Follistatin mRNA expression in HepG2 cells
# Type: cell-based, human
# Condition: Experiment 2, 1 nM insulin treated; HepG2; 100 nM oligomeric compound
In the oligonucleotide strings, read from the 5' end, every base follows the letter of its sugar. An asterisk marks phosphorothioate; unmarked linkages are phosphodiester. Other units and linkages are bracketed, terminal groups are in braces. A string of capitals states the bases alone. e = 2'-O-(2-methoxyethyl) (MOE); [5mC] = 5-methylcytosine; d = 2'-deoxy (DNA)
Field: numeric (% UTC). Do not append units.

Record excerpt, results attached:
Substance | Follistatin (% UTC)
327913 (antisense eA*eA*e[5mC]*e[5mC]*eG*eA*eT*eT*eT*e[5mC]*eA*eA*eA*eT*eG*eG*eT*eG*e[5mC]*eT*eA*eG) [compound 327913] | 123
327878 (antisense e[5mC]*eT*eA*eG*eT*eG*eG*eT*e[5mC]*e[5mC]*eT*eA*eA*eA*e[5mC]*eA*eT*eT*eT*e[5mC]*eA*e[5mC]) [compound 327878] | 150
327922 (antisense eT*e[5mC]*eA*eG*eT*eT*eT*eT*eG*e[5mC]*eA*eT*eG*eG*eA*eT*eT*eT*eG*e[5mC]*eA*e[5mC]*eA) [compound 327922] | 61

Request: Requested read-out Follistatin (% UTC), target or system follistatin, entry 340927 (antisense eT*eG*eA*eG*e[5mC]*dT*dA*d[5mC]*dA*dG*dT*dG*d[5mC]*dT*dT*e[5mC]*eA*eT*e[5mC]*eT*e[5mC]*eA) [compound 340927]
Result: 128

Reference source for all entries: patent US8178506B2
